- subject-of-test: human adenosine A1 receptor (Homo sapiens)
- Sequence (P30542 whole entry): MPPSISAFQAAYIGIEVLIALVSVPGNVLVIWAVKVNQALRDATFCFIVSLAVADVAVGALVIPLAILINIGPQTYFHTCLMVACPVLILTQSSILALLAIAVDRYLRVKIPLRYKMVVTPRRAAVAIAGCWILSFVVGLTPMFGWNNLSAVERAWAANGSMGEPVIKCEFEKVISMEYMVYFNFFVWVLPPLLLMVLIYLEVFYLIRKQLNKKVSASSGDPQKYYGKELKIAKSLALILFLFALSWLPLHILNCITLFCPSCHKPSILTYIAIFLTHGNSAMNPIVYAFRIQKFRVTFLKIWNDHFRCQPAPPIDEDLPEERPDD
- assay-text: Adenosine A1 Receptor Functional Assay (A1GAL2)
- setup-conditions: CHO-K1 cells, cAMP inducible beta-galactosidase reporter, 4 nM r-PIA/1 uM Forskolin challenge
pKi: −log10 of the molar value. Structures can show the parent of a compound that is named as a salt.
measured-metric: pKi

molecule | subject-of-test | limit-operator | observed
COc1ccccc1Cc1cc2c(N)nc(-c3ccc(C)o3)nc2s1 [Example 12] | human adenosine A1 receptor (Homo sapiens) | = | 6.94
COc1ccccc1C(O)c1cc2c(N)nc(-c3ccc(C)o3)nc2s1 (stereo not shown) [Example 11] | human adenosine A1 receptor (Homo sapiens) | = | 7.99
CCc1ccc(-c2nc(N)c3cc(Cc4ccccc4)sc3n2)o1 [Example 8] | human adenosine A1 receptor (Homo sapiens) | = | 6.65
C=C(c1ccccc1)c1cc2c(N)nc(-c3nc(C)cs3)nc2s1 [Example 9] | human adenosine A1 receptor (Homo sapiens) | < | 6.23
Cc1ccc(-c2nc(N)c3cc(/C=C/c4ccccc4)sc3n2)o1 [Example 33] | human adenosine A1 receptor (Homo sapiens) | = | 5.48
Nc1nc(-c2ncccn2)nc2sc(Cc3ccccc3)cc12 [Example 25, hydrochloride] | human adenosine A1 receptor (Homo sapiens) | = | 6.21
Nc1nc(-c2ccc(C(F)F)o2)nc2sc(Cc3ccccc3)cc12 [Example 43] | human adenosine A1 receptor (Homo sapiens) | = | 5.52
Cc1ccc(-c2nc(N)c3cc(CCc4ccccc4)sc3n2)o1 [Example 22] | human adenosine A1 receptor (Homo sapiens) | = | 5.56
Cc1ccc(-c2nc(N)c3cc(C(C)c4ccccc4)sc3n2)o1 (racemic) [Example 16] | human adenosine A1 receptor (Homo sapiens) | = | 6.04
Nc1nc(-c2cnco2)nc2sc(Cc3ccccc3)cc12 [Example 19] | human adenosine A1 receptor (Homo sapiens) | = | 7.00
CC(c1ccccc1)c1cc2c(N)nc(-c3ncco3)nc2s1 (racemic) [Example 21] | human adenosine A1 receptor (Homo sapiens) | = | 5.93
Cc1csc(-c2nc(N)c3cc(Cc4ccccc4)sc3n2)n1 [Example 14] | human adenosine A1 receptor (Homo sapiens) | = | 5.83
COc1ccccc1C(O)c1cc2c(N)nc(-c3ccc(C(F)F)o3)nc2s1 (stereo not shown) [Example 45] | human adenosine A1 receptor (Homo sapiens) | = | 7.46
Nc1nc(-c2ccc(C3CC3)o2)nc2sc(Cc3ccccc3)cc12 [Example 23] | human adenosine A1 receptor (Homo sapiens) | = | 6.06
Cc1ccc(-c2nc(N)c3cc(CCc4ccc(F)cc4)sc3n2)o1 [Example 29] | human adenosine A1 receptor (Homo sapiens) | = | 5.80
Cc1ccc(-c2nc(N)c3cc(C(O)c4ccccc4)sc3n2)o1 (stereo not shown) [Example 2] | human adenosine A1 receptor (Homo sapiens) | = | 7.68
Cn1cnc(-c2nc(N)c3cc(Cc4ccccc4)sc3n2)c1 [Example 20] | human adenosine A1 receptor (Homo sapiens) | = | 5.63
Nc1nc(-c2cnccn2)nc2sc(Cc3ccccc3)cc12 [Example 32] | human adenosine A1 receptor (Homo sapiens) | = | 7.04
Cc1ccc(-c2nc(N)c3cc(C(=O)c4cccc(CN5CCOCC5)c4)sc3n2)o1 [Example 5] | human adenosine A1 receptor (Homo sapiens) | = | 6.30

====

- subject-of-test: human A2a adenosine receptor (Homo sapiens, UniProt P29274)
- Sequence (P29274 whole entry): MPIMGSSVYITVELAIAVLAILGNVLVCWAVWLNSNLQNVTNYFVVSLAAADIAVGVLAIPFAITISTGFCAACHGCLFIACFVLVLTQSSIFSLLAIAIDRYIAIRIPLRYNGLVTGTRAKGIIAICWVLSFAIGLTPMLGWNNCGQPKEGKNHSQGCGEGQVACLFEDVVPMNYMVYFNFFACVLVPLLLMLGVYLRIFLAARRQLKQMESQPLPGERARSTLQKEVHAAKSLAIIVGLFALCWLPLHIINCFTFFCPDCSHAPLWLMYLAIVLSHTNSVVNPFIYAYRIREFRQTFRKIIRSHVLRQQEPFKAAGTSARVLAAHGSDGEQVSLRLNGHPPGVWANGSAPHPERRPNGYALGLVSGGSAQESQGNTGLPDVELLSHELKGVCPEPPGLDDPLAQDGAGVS
- assay-text: Ligand Binding Assay for Adenosine A2a Receptor
- setup-conditions: HEK293 plasma membrane, radioligand [3H]CGS21680; read-out: A2A-B Ki
measured-metric: log10 Ki (log10 of the value in nM)

compound | log10 Ki
COc1ccccc1C(O)c1cc2c(N)nc(-c3ccc(C)o3)nc2s1 (centres unmarked) | 0.83
CC(c1ccccc1)c1cc2c(N)nc(-c3ncco3)nc2s1 (racemic) | 1.86
Cc1ccc(-c2nc(N)c3cc(CCc4ccccc4)sc3n2)o1 | 1.70
Nc1nc(-c2cccnc2)nc2sc(Cc3ccccc3)cc12 | 2.28
Nc1nc(-c2ccc(C(F)F)o2)nc2sc(Cc3ccccc3)cc12 | 1.57
